system-under-test: T1, human BAFF receptor (BAFFR) (human, UniProt Q96RJ3 1-184)
T1 construct: On Raji cells (endogenous), on transfected HEK293-hBAFFR cells, and on primary human blood B cells in the functional assays; also called hBAFFR; BR3
T1 sequence: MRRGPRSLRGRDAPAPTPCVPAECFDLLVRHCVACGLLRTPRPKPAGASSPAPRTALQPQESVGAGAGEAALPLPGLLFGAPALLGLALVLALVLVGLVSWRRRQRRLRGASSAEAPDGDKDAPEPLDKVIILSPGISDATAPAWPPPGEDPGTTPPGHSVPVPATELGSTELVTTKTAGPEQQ
test-name: competition FACS on Raji cells; Fab titrated, competitor biotinylated hsBLyS
Description: The BAFFR-BLyS binding assay is performed using Raji cells expressing endogenous BAFFR. The BAFFR specific Fabs are used in final dilutions ranging from 40 to 0.001 nM. The diluted Fabs are incubated in 96-well plates with 5×10⁴ Raji cells per well for 1 h at 4° C. on a shaker. […] Finally the cells are washed twice with FAGS buffer, resuspended in FACS buffer and BLyS binding to cell surface BAFFR is detected via fluorescence cytometry in the FACSArray instrument (Becton Dickinson). […]
Measured IC50 values are reported for all entries that follow.
Express it in nM; write the number only.

-- ask If you can, please state the reported IC50 value of MOR07342 Fab (Fab, V domains shown, Human Fab format) VH: QVQLQQSGPGLVKPSQTLSLTCAISGDSVSSNSAAWGWIRQSPGRGLEWLGRIYYRSKWYNNYAVSVKSRITINPDTSKNQFSLQLNSVTPEDTAVYYCARYKWVPKIGVFDSWGQGTLVTVSS VL: DIVLTQSPATLSLSPGERATLSCRASQMIDLRYLSWYQQKPGQAPRLLIYGSSSRATGVPARFSGSGSGTDFTLTISSLEPEDFAVYYCQQFYSSPLTFGQGTKVEIK .
-- reply 0.09

-- ask Look at this binder and give its reported IC50. MOR07685 Fab (Fab, V domains shown) VH: QVQLQQSGPGLVKPSQTLSLTCAISGDSVSSNSAAWGWIRQSPGRGLEWLGRIYYRSKWYNSYAVSVKSRITINPDTSKNQFSLQLNSVTPEDTAVYYCARYQWVPKIGVFDSWGQGTLVTVSS VL: DIVLTQSPATLSLSPGERATLSCRASQMIDLRYLSWYQQKPGQAPRLLIYGSSSRATGVPARFSGSGSGTDFTLTISSLEPEDFAVYYCQQLYSSPMTFGQGTKVEIK
-- reply 0.12

-- ask If you can, please state the reported IC50 value of MOR07347 Fab (Fab, V domains shown, Human Fab format) VH: QVQLQQSGPGLVKPSQTLSLTCAISGDSVSSNSAAWGWIRQSPGRGLEWLGRIYYRSKWYNSYAVSVKSRITINPDTSKNQFSLQLNSVTPEDTAVYYCARYQWVPKIGVFDSWGQGTLVTVSS VL: DIVLTQSPATLSLSPGERATLSCRASQEILPEYLSWYQQKPGQAPRLLIYGSSSRATGVPARFSGSGSGTDFTLTISSLEPEDFAVYYCQQFYSSPLTFGQGTKVEIK .
-- reply 0.02

-- ask Any idea what IC50 was measured for MOR07349 Fab (Fab, V domains shown, Human Fab format) VH: QVQLQQSGPGLVKPSQTLSLTCAISGDSVSSNSAAWGWIRQSPGRGLEWLGRIYYRSKWWNDYAVSVKSRITINPDTSKNQFSLQLNSVTPEDTAVYYCARYDWVPKIGVFDGWGQGTLVTVSS VL: DIVLTQSPATLSLSPGERATLSCRASQMIDLRYLSWYQQKPGQAPRLLIYGSSSRATGVPARFSGSGSGTDFTLTISSLEPEDFAVYYCQQFYSSPLTFGQGTKVEIK ?
-- reply 0.17

Each recorded value in this set is attributed to patent US20120195913A1.
